Source: the nanobody polyreactivity screen of Harvey et al. (2022)

Assay Text: yeast display, Sf9 membrane polyspecificity reagent, FACS + sequencing; frameworks hold sequencing errors
Experimental Readout: polyreactivity (PSR sort gate)

Study these solved cases before continuing.
QVHLVESGGGLVQAGGSLRLICAASGGTLWVNTMGWYRQAPGKERELVAAISRRGGSTYYADSVKGRFTISRDNAKNTVYLQMNSLKPEDTAVYYCAKGYSSHYWWAYDSWGQGTQVTVSS
high polyreactivity
QDQLVESGGGFVQAGGSLRLSCAASGFTFGSNTMGWSRQAPGKERELVAAITTSGDSTYYADSVKGRFTLSRDNAKNTVYLQMNSLKPEDTAVYDCAARRGYPRFEYWGQGTQVTVSS
high polyreactivity
QVQLVESGGGLVQAGGSLRLSCAASGRTFIPYAMAWYRQAPGKEMELVAAISTTAGTTYYADSVKGRFTISRDNAKNTVYLQMNSLKPEDTAVYYCAAEGYGSFFVAMDYWGQGTQVTVSS
high polyreactivity
QVQLVESGGRLVQAGGSLRLSCAASGFIFVDYAMGWYRQAPGKERELVAAITYDGGSTYYADSVKGRFTISRDNAKNTVYLPMNSLKPEDTAVYYCATQGLWIFVVVEMDYWGQGTQVTVSS
low polyreactivity

Exam item: Look up and state reported polyreactivity (PSR sort gate) for QVQLVESGGGLVQAGGSLRLSCAASGSIFKSNAMGWYRQAPGKERELVAAISNGGITNYADSVKGRFTISRDNAKNSVYLQMNSLKPEDTAVYYCATSDVREIWVDYWGQGTQVTVSS
Marked response: low polyreactivity

###

Assay Text: yeast display, Sf9 membrane polyspecificity reagent, FACS + sequencing; frameworks hold sequencing errors
Experimental Readout: polyreactivity (PSR sort gate)

QVQLVESGAGLVQAGGSLRLSCAASGTTFWKYVMGWYRQAPGKERELVAAITSRGGSTYADSVKGRFTISRDNAKNSVYLQMNSLKPEDTAVYYCAATKFWYYGYDYWGQGTQVTVSS
low polyreactivity
QVQLVESGGGLVQAGGSLRLSCAASGITFLHYALGWYRQAPGKERELDAAISVRGGITYYADSVKGRFTISRDNAKNTVYLQMHSLKPEDTAVFYCAADRPKFYNSIYDYWGQGTQVTVSS
low polyreactivity
QVQLVESGGGLVQAGGSLRLSCAASGRIFVKYAMGWYRQARGKESELVAAISKSGGSTYYADSVKGRFTISRDNAKTTVYLQINILKPEDTAVYYCAADEYYQVSAYDYWGQGTQVTVSS
low polyreactivity

###

Assay Text: yeast display, Sf9 membrane polyspecificity reagent, FACS + sequencing; frameworks hold sequencing errors
Experimental Readout: polyreactivity (PSR sort gate)

Solved cases (5 shown):
QVQLVESAAGLVQAGASHRLSCAASARTFTVNAMGWYRQAPGKERELVAAISGRSGRTSYADSVKGRFTISRDNAKNTVYLQMNSLKQEVTAVYYCAADYYFYFTYPARFGYWGLGTQVTVSS
high polyreactivity
QVQLVESGGGLVQAGGSIRLSCAASGGTFKTYVMGWNRQAPVKERELVAAINTSGTSTYYADSVKGRFTISRDNAKIKVYLQMNSLKPEDTAVYYCATRYRYTYYWGQGTQVTVSS
high polyreactivity
QVQLVESGGGLVQAGGSLRLSCAASGLTFSYYARGWYRQAPGKERELVAAISWSGDSTYYADSVKGRFTISRDNAKNTVYVQMHSLKPEDTAVYYCAVVSDFYTPYTGWPFLDYEYWGQGTQVTVSS
low polyreactivity
QVQLEESGGGLVQAGGSLRLSCAASGFTFYSYVMGWYRPAPGKVTELVAAIYWSGGSTYYADSVKGRFTISRDNAKYTVYLQMNSLKPEDTAVYYCAARRYASRNGYLYDYWGQGTQVTVSS
high polyreactivity
QVQLVESGGGLVQAGGSLRLSCAASGFIFFINDMGWYRQAPGKERELVAAISWSGGSTYYADSVKGRFTISRDNAKNTVYLQMNSLKPEDTAVYYCNTDVPTAQYDYWGQGTQVTVSS
low polyreactivity

Exam item: Check the records and state polyreactivity (PSR sort gate) for QVQLVESGGGLVQAGGSLRLSFAASGSTFYYHAMGWYRQAPGKERELVAAIRSTGSTNYADSVKGRFTISRDNAKNTVYLQMNSLKPEDTAVYYCAARIRRTRGYNYWGQGTQVTVSS
Marked response: high polyreactivity

Exam item: Name the recorded polyreactivity (PSR sort gate) of the sequence listed here: QVQLQESGGGVQAGGSLRLSCAASGSISAPILMGWYRQAPGKERELVAGIGGGANSYYADSVKGRFTVSRDNAKYTVYLQMNSLKPEATAVYYCAAGDYYWTNFGYWGQGTQVTASS
Marked response: high polyreactivity

Exam item: Look up and report measured polyreactivity (PSR sort gate) for this entry: QVQLVESGGGLVQAGGSLRLSCAASGYIFDDNAMGWYRQAPGKERELVATNYADSVKGRFTISRDNAKNTVYLQMNSLKPEDTAVYYCAKDVWQTYTDLDHWGQGTQVTVSS
Marked response: low polyreactivity

Exam item: Kindly indicate its recorded polyreactivity (PSR sort gate). Item: QVQLVESGGGLVQAGGSLRLSCAASGRIFTPYAMGWYRQAPGKERELVATISRGTSTSYADSVKGRFTISRDNAKNTVYLQMNSLKPEDTAVYYCAALGPRTTFRYTSYYYWGQGTQVTVSS
Marked response: high polyreactivity

Exam item: Return polyreactivity (PSR sort gate) (reported value) for this sequence: QVQLVESGGGLVQAGGSLRLSSAAAGSTFGRYAMGWYRQAPGKEREFVAAITQGGTNTYYADSVKGRFTISRDNAKNTVYLQMNSLKPEDTAVYYCARVRRYPLRYNYWGQGTQVTVSS
Marked response: high polyreactivity

Exam item: Entry QVQLVESGGGLVQAGGSLRLSCAASGRTFYYAMGWYRQAPGKERELVAAISKNGGRTYYADSVKGRFTISRDNAKNTVYLQMNSLKPEDTAVYYCAAAFQRPHSYLYYYWGQGTQVTVSS needs its polyreactivity (PSR sort gate) filled in; supply it.
Marked response: high polyreactivity
